molecular target: recombinant soluble homotrimeric HA of A/Vietnam/1203/04 (H5N1) (Influenza A virus A/Vietnam/1203/2004 (H5N1)); assay: HA microarray, BCC supernatant; settings: remark: other sources report otherwise

[
  {
    "binder": "TCN-528 (5087_P17) (antibody, V domains shown) VH: QVQLVQSGSEVKKPGASVKVSCKASGYTFTNYDINWIRQAPGQGLEWMGWINPNSGTTGSAQRFQGRVTITVDTSITTVYMELSSLRSDDTAIYYCARGRELLRLQHFLTDSQSERRDCFDPWGQGTLVTVSS VL: DIQMTQSPSSLSASVGDRVTITCRANQDIGIYLNWYQQNPGKVPKLLLHGASSLQGGVPSRFSASGSGTDFTLTIHSLQPEDLATYYCQQSRRLPYTFGQGTRVELK",
    "Trimeric HA Binding RLU, RLU": 45600
  },
  {
    "binder": "TCN-535 (5246_P19) (antibody, V domains shown) VH: QVQLVQSGSEVKKPGTSVKVSCTASGSVFTNYGISWVRQAPGQGLEWMGGIIPLFGAAKYAQKFQGRVTITADESTKTVYMELSRLTSKDTAIYFCAKAPRVYEYYFDQWGQGTPVTVSS VL: EIVLTQSPGTLSLSPGERATLSCRASQSVSSSQLAWYQQKPGQAPRLIIYGASTRATGIPDRFSGSGSGTDFTLTIGRLEPEDFAVFFCQQYSTSPPTFGQGTKVDFK",
    "Trimeric HA Binding RLU, RLU": 4740
  },
  {
    "binder": "TCN-545 (5082_I15) (antibody, V domains shown) VH: QVQLQQWGAGLLKPSETLSLSCAVFGGSFSDYYWTWIRQPPGKGLEWIGEIKHSGRTNYNPSLESRVTISVDTSKNQFSLKLSSVTAADTAIYYCARGTDPDTEGYCRSGSCSAFDFWGQGTLVTVSS VL: EIVLTQSPGTLSLSPGERATLSCRASHFVNYRSLAWYQQTPGQVPRLLIYGASTRATGIPDRFSGSGSGTDFTLTISRLEPEDFAVYFCQQYGGSPRYTFGQGTRLEIK",
    "Trimeric HA Binding RLU, RLU": 235
  }
]
